# system under test: Cytochrome P450 2C19 (Homo sapiens)
# assay explanation: qHTS Assay for Inhibitors and Substrates of Cytochrome P450 2C19 (AID 899); note: nearly all actives have a fitted effect of over 60% in size
# test settings: recombinant CYP2C19, luciferin-H EGE luminescence; series mostly up to 57.1 µM
Inconclusive results are not listed. The source made the active and inactive calls. Calls come from the whole dose curve; as a rule, active = well fitted inhibition curve with a large enough effect; inconclusive = small, poorly fitted or top-dose-only effect; inactive = no such curve, though single readings can be large or run the other way.
Outcome field: choose from active, inactive

Example entries begin here.
[[record]]
compound_string = "CC1=NCCc2c1[nH]c1cc(O)ccc21"
class_label = "inactive"

[[record]]
compound_string = "C[N+]1=Cc2cc3c(cc2CC1)OCO3"
class_label = "inactive"

[[record]]
compound_string = "CN(C)[C@@H]1C(=O)C(C(N)=O)=C(O)[C@]2(O)C(=O)C3=C(O)c4c(O)cccc4[C@@](C)(O)[C@@H]3C[C@@H]12"
class_label = "inactive"

[[record]]
compound_string = "COc1cc(CNC(=O)CCCC/C=C\\C(C)C)ccc1O"
class_label = "active"

[[record]]
compound_string = "CC(C)NC(=O)N1CC[C@@]2(CCCNC2)C1"
class_label = "inactive"

[[record]]
compound_string = "CCN1C[C@]2(C)CC[C@H](OC)[C@@]34[C@@H]2[C@H](OC(C)=O)[C@]2(OCO[C@@]25C[C@@H](OC)[C@@H]2C[C@@]3(O)[C@H]5[C@@H]2OC)[C@H]14"
class_label = "inactive"


Q. Call for entry S=C(S)N1CCCC1 :
A. active

Q. State the result this test recorded for COc1cc2c(cc1OC)[C@H](C)NCC2 .
A. inactive

Q. Dear all, I need the recorded test outcome for C[C@@]12CC[C@H](O)C[C@@H]1CC[C@H]1[C@@H]2C[C@@H](O)[C@]2(C)[C@@H](C3=CC(=O)OC3)CC[C@]12O , thank you.
A. inactive

Q. Check the results log: what was the call for Cc1ccccc1-c1cncnc1NCCc1cnc[nH]1 ?
A. active

###

# assay explanation: Primary qHTS for inhibitors of nuclear receptor binding SET domain protein 2 (NSD2) in an isogenic RCH-ACV NSD2 p.E1099K mutant (9B) (AID 1645876); note: nearly all actives have a fitted effect of over 70% in size
# test settings: RCH-ACV (leukaemia line) NSD2 E1099K (9B) viability, CellTiter-Glo, 72 h; series mostly up to 44.9 µM
Inconclusive results are not listed. Activity calls are given as the source filed them. The call rests on the fitted dose curve; in most records, active means well fitted inhibition curve with a large enough effect; inconclusive means small, poorly fitted or top-dose-only effect; inactive means flat fitted curve, though single readings scatter.
Response enum: active, inactive

Q. Would you mind telling me which call this test gave COC12C(COC(N)=O)C3=C(C(=O)C(C)=C(N)C3=O)N1CC1C2N1C (stereo not given) ?
A. active

Q. Could you please tell me the result logged for CC(N[C@H]1C[C@@H]1c1ccccc1)c1ccc2c(c1)OCCO2 (stereo not given in full) in this assay?
A. inactive

Q. Dear colleague, could you share the recorded outcome for COc1cc2cc(c1Cl)N(C)C(=O)C[C@H](OC(=O)C(C)C)[C@]1(C)O[C@@H]1[C@H](C)[C@@H]1C[C@@](O)(NC(=O)O1)[C@H](OC)/C=C/C=C(\C)C2 when you have a moment?
A. inactive

###

# assay explanation: Viability qHTS for inhibitors of the SERCaMP assay screened against the NCATS CANVASS Library (AID 1347400); note: nearly all actives have a fitted effect of over 70% in size
# test settings: SH-SY5Y SERCaMP cells viability, CellTiter-Glo, 48 h; series mostly up to 92.2 µM
Results filed as inconclusive are left out. The source made the active and inactive calls. The call rests on the fitted dose curve; in most records, active means well fitted cell-killing curve with a large enough effect; inconclusive means small, poorly fitted or top-dose-only effect; inactive means flat fitted curve, though single readings scatter.
The reply should name one outcome from active, inactive

Field: example entries. Status: answers known.
[[record]]
molecule = "C[C@]12CC(O)C3[C@@H](CCC4C[C@@H](O)CC[C@@]43CO)[C@@]1(O)CC[C@@H]2C1=CC(=O)OC1 (some centres not stated)"
class_label = "active"

[[record]]
molecule = "C/C(=C\\[C@H](C)C(=O)C[C@H](O)CC1CC(=O)NC(=O)C1)[C@@H]1OC(=O)/C=C/CC/C=C/C=C/[C@@H]1C"
class_label = "active"

[[record]]
molecule = "CC(C)CC1C(=O)O[C@H](C(C)C)C(=O)N(C)C(CC(C)C)C(=O)O[C@@H](C(C)C)C(=O)N(C)C(CC(C)C)C(=O)O[C@H](C(C)C)C(=O)N(C)C(CC(C)C)C(=O)O[C@@H](C(C)C)C(=O)N1C (some centres not stated)"
class_label = "active"


Q. Tell me the assay call for C[N+](C)(C)CCc1c[nH]c2ccccc12 please.
A. inactive

Q. Could you please tell me the result logged for c1ccc2nc3c(cc2c1)[nH]c1ccccc13 in this assay?
A. inactive

###

# System: DIV14
# assay explanation: qHTS profiling for inhibitors of Plasmodium falciparum proliferation (AID 504749); note: nearly all actives have a fitted effect of over 60% in size
# test settings: P. falciparum in erythrocytes, SYBR Green DNA, 72 h; series mostly up to 28.7 µM
Inconclusive results are not listed. Active and inactive are the calls of the source. Calls come from the whole dose curve; as a rule, active = well fitted inhibition curve with a large enough effect; inconclusive = small, poorly fitted or top-dose-only effect; inactive = flat fitted curve, though single readings scatter.
Returns: one label drawn from active, inactive

[[record]]
compound = "CC(C)N(CC[C@@](C(N)=O)(c1ccccc1)c1ccccn1)C(C)C"
system_under_test = "DIV14"
class_label = "inactive"

[[record]]
compound = "CO[C@@H](COC(N)=O)C1=C(N2CC2)C(=O)C(C)=C(N2CC2)C1=O"
system_under_test = "DIV14"
class_label = "active"

[[record]]
compound = "C=CC1CN2CCC1CC2C(OC(=O)OCC)c1ccnc2ccc(OC)cc12 (centres undefined)"
system_under_test = "DIV14"
class_label = "active"


Q. What did the test return for C[C@H](NC(C)(C)C)C(=O)c1cccc(Cl)c1 ?
A. inactive

Q. Fill in: this test's call for CN(C)[C@@H]1C(=O)C(C(N)=O)=C(O)[C@]2(O)C(=O)C3=C(O)c4c(O)ccc(Cl)c4[C@](C)(O)[C@H]3C[C@@H]12 is ___
A. inactive

Q. Per the assay record, what outcome was assigned to C[C@]12CC[C@H]3[C@@H](CCC4=CC(=O)CC[C@@]43C)[C@@H]1CC[C@@H]2O ?
A. inactive

Q. How did this test come out for COc1ccc2c(c1OC)CN1CCc3cc4c(cc3[C@H]1C2)OCO4 ?
A. active

Q. Recorded call for O=C1C=C2C=CC3C[C@@]2(O1)C1CCCCN31 (some centres undefined) ?
A. inactive

Q. Status in this test for NCC[C@H](O)C(=O)N[C@H]1C[C@@H](N)[C@@H](O[C@H]2O[C@@H](CN)[C@@H](O)[C@@H](O)[C@@H]2N)[C@@H](O[C@H]2O[C@@H](CO)[C@@H](O)[C@@H]2O)[C@@H]1O ?
A. inactive

###

# assay explanation: Cell Viability - LYMP2-011 (AID 969);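 note: cells exposed to compound for 24 hours; nearly all actives have a fitted effect of over 60% in size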
# test settings: LYMP2-011 lymphoblastoid cells viability; series mostly up to 92.2 µM
Results filed as inconclusive are left out. Active and inactive are the calls of the source. Calls come from the whole dose curve; as a rule, active = well fitted cell-killing curve with a large enough effect; inconclusive = small, poorly fitted or top-dose-only effect; inactive = flat fitted curve, though single readings scatter.
Parameter call: string, one of T (active), F (inactive)

Worked examples, 6 compounds total:
[[record]]
compound = "CCCCOC(=O)c1ccccc1C(=O)OCCCC"
class_label = "F"

[[record]]
compound = "CCCOC(=O)c1ccccc1C(=O)OCCC"
class_label = "F"

[[record]]
compound = "Clc1ccc2ccccc2c1"
class_label = "F"

[[record]]
compound = "CCOP(=S)(OCC)Oc1ccc([N+](=O)[O-])cc1"
class_label = "F"

[[record]]
compound = "Clc1cccc(C(Cl)(Cl)Cl)n1"
class_label = "F"

[[record]]
compound = "BrCCBr"
class_label = "F"


Q. Which result was noted for this compound in the test: ClC(Cl)=C(Cl)Cl
A. F

Q. Look up the recorded call for Cc1ccc(O)c(C)c1 in this test.
A. F

###

# system under test: Cytochrome P450 3A4 (Homo sapiens)
# assay explanation: qHTS Assay for Activators of Cytochrome P450 3A4 (AID 885); note: nearly all actives have a fitted effect of over 65% in size
# test settings: recombinant CYP3A4, Luciferin-PPXE luminescence, 60 min; series mostly up to 57.1 µM
Active and inactive are the calls of the source. Calls follow the shape of the dose curve; as a rule, active = well fitted activation curve with a large enough effect; inconclusive = small, poorly fitted or top-dose-only effect; inactive = no such curve, though single readings can be large or run the other way.
Answer with one of the outcomes given here: active, inactive

[[record]]
compound = "c1ccc(N2CCC3(CCNCC3)CC2)nc1"
class_label = "inactive"

[[record]]
compound = "CN1C[C@H](CO)C=C2c3cccc4[nH]cc(c34)C[C@@H]21"
class_label = "inactive"

[[record]]
compound = "CC1(C)C(=O)C=C[C@@]2(C)C1=C(O)C(=O)[C@@]1(C)C2CC[C@@]2(C)C(c3ccoc3)C[C@H]3O[C@@]321 (stereo not given in full)"
class_label = "inactive"

[[record]]
compound = "CCC(=O)Nc1ccc(Cl)c(Cl)c1"
class_label = "inactive"


Now for another entry.
Q. What call does the record list for N#Cc1ccc(CN2CCC3(CC2)CCN(C(=O)Oc2ccccc2)CC3)cc1 ?
A. active

###

# System: CP305
# assay explanation: qHTS profiling for inhibitors of Plasmodium falciparum proliferation (AID 504749); note: nearly all actives have a fitted effect of over 60% in size
# test settings: P. falciparum in erythrocytes, SYBR Green DNA, 72 h; series mostly up to 28.7 µM
Results filed as inconclusive are left out. The source made the active and inactive calls. The call rests on the fitted dose curve; in most records, active means well fitted inhibition curve with a large enough effect; inconclusive means small, poorly fitted or top-dose-only effect; inactive means flat fitted curve, though single readings scatter.
Outcome (select one): t = active, f = inactive

[[record]]
compound = "CC(=O)OCC(=O)[C@@H]1CC[C@H]2[C@H]3CC[C@H]4C[C@@H](O)CC[C@]4(C)[C@@H]3C(=O)C[C@@]12C"
class_label = "f"

[[record]]
compound = "CC[C@@H]1[C@@H]2C[C@H]3[C@H]4N(C)c5ccccc5[C@@]45C[C@@H]([C@@H]2[C@@H]5O)N3[C@H]1O"
class_label = "f"

[[record]]
compound = "C[N+]1([O-])[C@@H]2CC(OC(=O)[C@@H](CO)c3ccccc3)C[C@@H]1[C@H]1O[C@H]12 (stereo partly drawn)"
class_label = "f"

[[record]]
compound = "[Hg+][c]1ccccc1"
class_label = "t"

[[record]]
compound = "CCNC[C@H](O)c1cccc(O)c1"
class_label = "f"


Q. # lookup: test call for C[N+]1(C)[C@@H]2CC[C@H]1CC(OC(=O)[C@@H](CO)c1ccccc1)C2 (stereo partly drawn)
A. f

Q. Returns: the outcome recorded for N[C@H]1C[C@H]1c1ccccc1 in this assay.
A. f

Q. Assay result, entry C[N+]1([O-])[C@@H]2CC[C@H]1CC(OC(=O)[C@@H](CO)c1ccccc1)C2 (stereo partly drawn) — outcome?
A. f

Q. Record lookup: outcome of this test for CC(=O)O[C@H]1CC[C@@]2(C)C(=CC[C@@H]3[C@H]2CC[C@]2(C)C(=O)CC[C@H]32)C1 ?
A. f

Q. Answer briefly: the call reported for CC[C@@]1(c2ccc(N)cc2)CCC(=O)NC1=O in this assay.
A. f

Q. Look up the recorded call for O=[As]O[As]=O (stereo not drawn) in this test.
A. t

Q. // outcome(item) with item = CN(C)[C@@H]1C(=O)C(C(N)=O)=C(O)[C@]2(O)C(=O)C3=C(O)c4c(O)ccc(Cl)c4[C@](C)(O)[C@H]3C[C@@H]12
A. f

Q. Kindly provide the recorded test outcome for the following compound: CC(C)(O)C1C2OC(=O)C1[C@]1(O)C[C@H]3O[C@]34C(=O)O[C@H]2[C@]14C (stereo partly drawn) (tested in a mixture with another compound)
A. f

Q. What call does the record list for CNC[C@H](O)c1ccc(O)cc1 ?
A. f

Q. Tell me the assay call for C#CCN(C)[C@@H](C)Cc1ccccc1 please.
A. f
